# TARGET_DESC: mushroom tyrosinase
# ASSAY_DETAILS: Examination for inhibition of tyrosinase activity (L-DOPA substrate, absorbance at 475 nm)
# EXPERIMENTAL_PARAMETERS: L-DOPA substrate, pH 8.8 phosphate buffer, 1.5 minutes, room temperature; read-out: ID50 (inhibition of tyrosinase activity)
REPORTED_PROPERTY: IC50 (mM)

MOLECULE: Oc1ccc(O)cc1 [a, hydroquinone, reference compound]
IC50 [mM]: 4.2

[I] CCOc1ccc(C(=O)O)c(O)c1 [Example 4, 2-hydroxy-4-ethoxybenzoic acid]
[II] O=C1O[C@H]([C@@H](O)CO)C(O)=C1O [c, ascorbic acid, reference compound]
[III] COc1cccc(C(=O)O)c1O [Example 1, 2-hydroxy-3-methoxybenzoic acid]
-- ask Please order the records by their reported IC50, lowest number first. # the answer lists labels in the order requested
-- reply II, I, III

====

Recorded IC50, one value per entry.
# TARGET_DESC: mushroom tyrosinase
# ASSAY_DETAILS: Examination for inhibition of tyrosinase activity (L-DOPA substrate, absorbance at 475 nm)
# EXPERIMENTAL_PARAMETERS: L-DOPA substrate, pH 8.8 phosphate buffer, 1.5 minutes, room temperature; read-out: ID50 (inhibition of tyrosinase activity)
# number only, unit mM dropped from output

Illustrative cases are given below, each with its answer.
COMPOUND: COc1ccc(C(=O)O)c(O)c1 [Example 2, 2-hydroxy-4-methoxybenzoic acid]
UNITS_LABEL: mM
NUMERIC_READOUT: 1
//
COMPOUND: O=C(O)c1cc(O)ccc1O [b, gentisic acid, reference compound]
UNITS_LABEL: mM
NUMERIC_READOUT: 13.6

Please examine the following record next.
The reported value for COc1ccc(O)c(C(=O)O)c1 [Example 3, 2-hydroxy-5-methoxybenzoic acid] in terms of IC50 is 4.5

====

# System: human skin
# ASSAY_DETAILS: Examination for bleaching effect (lotion applied to sunlight-exposed skin, depression effect to the chromatosis)
# Format: in vivo
# EXPERIMENTAL_PARAMETERS: lotion with 1.0 wt % sample, each morning and evening, 8 weeks, 10 subjects per group
# Protocol: (2) E[…] BLEACHING EFFECT Lotions were prepared by the following formula, using each sample. […] 10 subjects for each group were exposed to sunlight in summer for 4 hours (2 hours×2 days). […] After the application period, depression effect to the chromatosis which was caused by the ultraviolet irradiation was examined and evaluated, the degree of which was based on The following standard. […]
REPORTED_PROPERTY: bleaching effect

The reported value for O=C1O[C@H]([C@@H](O)CO)C(O)=C1O [c, ascorbic acid, reference compound] in terms of bleaching effect is .smallcircle.
